Please go through the items and note down their soluble fraction (log2).
Assay Name: soluble fraction after stress (log2 fold change); higher = more stays soluble; pooled small domains, quantitative proteomics
Particulars: stress: pH 4
Lab note: jot the number down without any unit.

Inquiry: GET /values?readout=soluble fraction (log2)&item= HMNGELSQRQWQILRLIAQGLSNEQMARQLFVAPSTIKTHINHLYAKLGVRTRAEAQAIARQKLMA
Reply text: -0.0448

Inquiry: Now give it for HMSPDLNEVEEKVFRALNGVESMHVNKLGIELNLPVSELFFTLLELEMKNVVKALPGGMYKL too.
Reply text: -1.1

Inquiry: Next sequence up: HMNQPRQRKVIFELIDERNALERVLMHFAHLEKQVEKIDERKYQVTLYYDKEDETEILIRVLSFG
Reply text: -1.16

Inquiry: // query: HMPGLPLWAFSTRGSAIHTGASFRDGDGLLFGPESRGLPDWLLEEVGQDRVLRLPMRPGSRSLNLSNAV
Reply text: -1.7

Inquiry: Same again, this time with HMTFENMFIENSGETLDREFLVENLRGISWQSYDRSVDVLVSRLRGKLGETPNNTRFIKTIHGVGYKFIGE
Reply text: -0.472

Inquiry: Next record, please: HMVANLPFNYKVYAKKGKLYVVISYKDSNGKYKKKWIRTGLDEGTKKKEVNTVADQIAAEYYSSMRLE
Reply text: 0.0398

Inquiry: Continue with HMTIKNHIDEILKKEPFILENIKNGLINISALARQIEPQLSRKVGKKLNVNAIIMTIKRMEIDQLNK
Reply text: 0.0888

Inquiry: Field entry: HMQYDSYTVEEPAKLLDWLLAHLRQSRTKIKATLQGHGIKVNGKTVTQFDYPLEPGMKIRVSLTK
Reply text: -0.622

Inquiry: // repeat for HMAAEFERKNGIVYFFHSSEKPHLNYPHVHARYGEDTISISLRDFTVIGSFSSKKKQKEAVEYVKNK and report
Reply text: -0.352

Inquiry: Another sequence to check: HMTMQTAEQESRLEQKLIDLSVGIDRFEGYSRPHGQLIASIADRIGTRLGMAAHDRFYMQQAAL
Reply text: -0.0547

Inquiry: Further, for HMSKIRTFRVKTVAVDQAYQVLKDYSPIKISTESNAVIIDLDESKTPAEIAGYLEKNGIKVDNIEVIAESE ?
Reply text: -0.148

Inquiry: Then this sequence: HMDDEAVQIMTLHISKGLEFDVVFALGLVSRTPESKEIEELEAEKQRQLYVAMTRAEKWLIVAA
Reply text: 0.22

Inquiry: How about HMARGRETILLVEDEPAVRGLVHATLRLHGYTVLEARHGIEALLTSTKFVGPIHLLLTDVVMPQMS ?
Reply text: 0.265

Inquiry: Please do the same for HMAQLKYEQIKSYLQAEAVKPESATRMPTVRELMRRFNVSLVTVNRALSELEHAKVIVRRQGAGIVAAQ as well.
Reply text: 0.0424

FYI, the data here is from the domain aggregation screens of Martell et al. (2025).
